# target-of-assay: human 5-hydroxytryptamine receptor 2A (5-HT2A) (Homo sapiens, UniProt P28223)
# Construct: expressed in transfected cells; host or cells: HTR2A&Ga15-HEK293
# Sequence (P28223 whole entry): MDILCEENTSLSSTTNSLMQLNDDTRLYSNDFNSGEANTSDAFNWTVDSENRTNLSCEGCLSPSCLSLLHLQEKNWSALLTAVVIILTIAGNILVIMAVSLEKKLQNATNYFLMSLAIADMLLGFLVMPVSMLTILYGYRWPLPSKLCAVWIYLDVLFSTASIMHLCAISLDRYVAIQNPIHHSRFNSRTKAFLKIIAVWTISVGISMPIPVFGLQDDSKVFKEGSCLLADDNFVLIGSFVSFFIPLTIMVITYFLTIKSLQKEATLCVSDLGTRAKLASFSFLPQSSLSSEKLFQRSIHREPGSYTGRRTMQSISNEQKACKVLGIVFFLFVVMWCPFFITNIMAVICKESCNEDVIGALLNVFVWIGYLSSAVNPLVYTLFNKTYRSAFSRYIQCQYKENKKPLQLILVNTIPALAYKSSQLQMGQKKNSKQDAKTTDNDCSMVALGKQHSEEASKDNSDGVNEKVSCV
# test-name: Human 5-HT2A functional FLIPR assay (agonist mode)
# Type: cell-based
Structures can show the parent of a compound that is named as a salt.
measurement-name: EC50 (nM)

* CC(C)N(CCc1c[nH]c2cccc(OC(=O)CCCC(=O)Oc3cccc4[nH]cc(CCN(C(C)C)C(C)C)c34)c12)C(C)C [Compound I-37, dihydrochloride] | 158
